Assay: Solubility test in pH 1.2 or pH 6.8 buffer (saturated solutions, HPLC; remaining solids by XRPD)
Type: physicochemical
Settings: pH 1.2 buffer, pH 1.2, simulated gastric fluid, thermodynamic from solid, pH 1.2 buffer, room temperature; calculated with the sum of impurities and major peak area; read-out: Solubility at 30 min
Measured Quantity: solubility at 30 min
Be sure to follow the number with its unit.

Which value of solubility at 30 min has been reported for C[C@@H]1Cc2c([nH]c3ccccc23)[C@@H](c2c(Cl)cc(/C=C/C(=O)O)cc2Cl)N1CC(C)(C)F in the records?
571 µg/mL
